systemName: Melanocortin receptor 4 (Homo sapiens)
Sequence (P32245 whole entry): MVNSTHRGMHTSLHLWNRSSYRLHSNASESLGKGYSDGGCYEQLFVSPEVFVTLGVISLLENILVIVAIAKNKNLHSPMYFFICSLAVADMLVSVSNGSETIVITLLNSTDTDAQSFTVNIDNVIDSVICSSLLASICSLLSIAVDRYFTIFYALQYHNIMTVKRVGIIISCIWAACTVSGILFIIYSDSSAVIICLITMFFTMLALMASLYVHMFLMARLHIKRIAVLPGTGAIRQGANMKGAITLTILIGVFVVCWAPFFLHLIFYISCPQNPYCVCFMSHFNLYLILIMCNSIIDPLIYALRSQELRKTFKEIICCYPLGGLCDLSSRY
assaySummary: Agonistic potency towards human melanocortin 4 receptor, determined by 50% maximum cAMP release
pEC50: −log10 of the molar value.
reportedProperty: pEC50

Check out these entries, answers already filled in.
| inputSmiles | pEC50 |
| --- | --- |
| O=C(N[C@H](Cc1ccc(Cl)cc1)C(=O)N1CCN(c2ccccc2CN2CCCCC2)CC1)[C@H]1Cc2ccccc2CN1 | 7.43 |
| O=C(N[C@H](Cc1ccc(Cl)cc1)C(=O)N1CCN(c2ccccc2OCc2ccccc2)CC1)[C@H]1Cc2ccccc2CN1 | 6.82 |
| O=C(N[C@H](Cc1ccc(Cl)cc1)C(=O)N1CCN(c2ccccc2Cn2ccnc2)CC1)[C@H]1Cc2ccccc2CN1 | 7.85 |
| C[C@@H](O)c1ccccc1N1CCN(C(=O)[C@@H](Cc2ccc(Cl)cc2)NC(=O)[C@H]2Cc3ccccc3CN2)CC1 | 7.36 |
| CCN(CC)Cc1ccccc1N1CCN(C(=O)[C@@H](Cc2ccc(Cl)cc2)NC(=O)[C@H]2Cc3ccccc3CN2)CC1 | 7.85 |

A: CN(C)Cc1ccccc1N1CCN(C(=O)[C@@H](Cc2ccc(Cl)cc2)NC(=O)[C@H]2Cc3ccccc3CN2)CC1
B: O=C(N[C@H](Cc1ccc(Cl)cc1)C(=O)N1CCN(c2ccccc2Oc2ccccc2)CC1)[C@H]1Cc2ccccc2CN1
Query: Sorting by pEC50 in descending order, would A or B appear first? # answer = label of selected item
Result: A

a: O=C(N[C@H](Cc1ccc(Cl)cc1)C(=O)N1CCN(c2ccccc2[N+](=O)[O-])CC1)[C@H]1Cc2ccccc2CN1
b: O=C(N[C@H](Cc1ccc(Cl)cc1)C(=O)N1CCN(c2ccccc2O)CC1)[C@H]1Cc2ccccc2CN1
c: Cc1ccccc1N1CCN(C(=O)[C@@H](Cc2ccc(Cl)cc2)NC(=O)[C@H]2Cc3ccccc3CN2)CC1
d: CN(C)CCOc1ccccc1N1CCN(C(=O)[C@@H](Cc2ccc(Cl)cc2)NC(=O)[C@H]2Cc3ccccc3CN2)CC1
e: CS(=O)(=O)Nc1ccccc1N1CCN(C(=O)[C@@H](Cc2ccc(Cl)cc2)NC(=O)[C@H]2Cc3ccccc3CN2)CC1
Query: Order the entries by their reported pEC50, beginning at the minimum. Please write the labels in the order that was asked for.
Result: c, b, a, d, e
(c: 5.89, b: 6.31, a: 6.68, d: 7.01, e: 7.80)

a: O=C(N[C@H](Cc1ccc(Cl)cc1)C(=O)N1CCN(c2ccccc2)CC1)[C@H]1Cc2ccccc2CN1
b: Nc1ccccc1N1CCN(C(=O)[C@@H](Cc2ccc(Cl)cc2)NC(=O)[C@H]2Cc3ccccc3CN2)CC1
Query: Sorting by pEC50 in descending order, would a or b appear first? # answer = label of selected item
Result: b

I: CCCN(CCC)Cc1ccccc1N1CCN(C(=O)[C@@H](Cc2ccc(Cl)cc2)NC(=O)[C@H]2Cc3ccccc3CN2)CC1
II: CS(=O)(=O)NCc1ccccc1N1CCN(C(=O)[C@@H](Cc2ccc(Cl)cc2)NC(=O)[C@H]2Cc3ccccc3CN2)CC1
Query: Between the entries labeled I and II , whose measured pEC50 is lower? # answer = label of selected item
Result: II
(II: 7.32, I: 8.10)

----------
systemName: Melanocortin receptor 5 (Homo sapiens)
Sequence (P33032 whole entry): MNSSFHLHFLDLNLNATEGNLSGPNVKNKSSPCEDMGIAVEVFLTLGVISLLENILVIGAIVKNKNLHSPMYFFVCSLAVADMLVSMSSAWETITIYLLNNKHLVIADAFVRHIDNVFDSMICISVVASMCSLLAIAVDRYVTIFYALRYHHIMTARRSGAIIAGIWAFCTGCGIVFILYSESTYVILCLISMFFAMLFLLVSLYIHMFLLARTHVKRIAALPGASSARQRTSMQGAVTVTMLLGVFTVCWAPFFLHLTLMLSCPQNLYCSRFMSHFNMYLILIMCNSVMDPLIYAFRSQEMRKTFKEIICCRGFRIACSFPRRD
assaySummary: Binding affinity towards human Melanocortin 5 receptor (MC5R) using [125I]NDP-alpha-MSH as a radioligand in membranes of HEK 293 cells
reportedProperty: Ki (nM)

| inputSmiles | readingUnit | reportedValue |
| --- | --- | --- |
| CN(C)Cc1ccccc1N1CCN(C(=O)[C@@H](Cc2ccc(Cl)cc2)NC(=O)[C@H]2Cc3ccccc3CN2)CC1 | nM | 1400 |

P: CS(=O)(=O)Nc1ccccc1N1CCN(C(=O)[C@@H](Cc2ccc(Cl)cc2)NC(=O)[C@H]2Cc3ccccc3CN2)CC1
Q: O=C(N[C@H](Cc1ccc(Cl)cc1)C(=O)N1CCN(c2ccccc2Cn2ccnc2)CC1)[C@H]1Cc2ccccc2CN1
Query: Between the entries labeled P and Q , whose measured Ki is lower? # answer = label of selected item
Result: Q

----------
systemName: Melanocortin receptor 4 (Homo sapiens)
assaySummary: Binding affinity towards human melanocortin 4 receptor using [125I]NDP-alpha-MSH as a radioligand in HEK293 cells
reportedProperty: Ki (nM)

Check out these entries, answers already filled in.
| inputSmiles | reportedValue |
| --- | --- |
| CN(C)Cc1ccccc1N1CCN(C(=O)[C@@H](Cc2ccc(Cl)cc2)NC(=O)[C@H]2Cc3ccccc3CN2)CC1 | 60 |
| Cc1nccn1Cc1ccccc1N1CCN(C(=O)[C@@H](Cc2ccc(Cl)cc2)NC(=O)[C@H]2Cc3ccccc3CN2)CC1 | 140 |

a: Cn1ccnc1COc1ccccc1N1CCN(C(=O)[C@@H](Cc2ccc(Cl)cc2)NC(=O)[C@H]2Cc3ccccc3CN2)CC1
b: C[C@H](O)c1ccccc1N1CCN(C(=O)[C@@H](Cc2ccc(Cl)cc2)NC(=O)[C@H]2Cc3ccccc3CN2)CC1
Query: Between the entries labeled a and b , whose measured Ki is lower? # answer = label of selected item
Result: b
(b: 350 nM, a: 530 nM)

----------
assaySummary: Tmax in fischer rats at 30 mg/kg dose, administered orally
appliedConditions: rat, in vivo, po
reportedProperty: Tmax (h)
All answers are understood in h, so give the number only.

Query: Quick one: Tmax of `CS(=O)(=O)Nc1ccccc1N1CCN(C(=O)[C@@H](Cc2ccc(Cl)cc2)NC(=O)[C@H]2Cc3ccccc3CN2)CC1` ?
Result: 3

----------
systemName: UniProtKB P32245
assaySummary: Binding affinity towards human melanocortin 4 receptor using [125I]NDP-alpha-MSH as a radioligand in HEK293 cells
reportedProperty: Ki (nM)

| inputSmiles | readingUnit | Ki |
| --- | --- | --- |
| O=C(N[C@H](Cc1ccc(Cl)cc1)C(=O)N1CCN(c2ccccc2CO)CC1)[C@H]1Cc2ccccc2CN1 | nM | 630 |

a: COc1ccccc1N1CCN(C(=O)[C@@H](Cc2ccc(Cl)cc2)NC(=O)[C@H]2Cc3ccccc3CN2)CC1
b: O=C(N[C@H](Cc1ccc(Cl)cc1)C(=O)N1CCN(c2ccccc2OCc2ccccc2)CC1)[C@H]1Cc2ccccc2CN1
c: CCN(CC)Cc1ccccc1N1CCN(C(=O)[C@@H](Cc2ccc(Cl)cc2)NC(=O)[C@H]2Cc3ccccc3CN2)CC1
Query: Order the entries by their reported Ki, beginning at the minimum. Please write the labels in the order that was asked for.
Result: c, b, a

----------
systemName: Melanocortin receptor 4 (Homo sapiens)
assaySummary: Binding affinity towards human melanocortin 4 receptor using [125I]NDP-alpha-MSH as a radioligand in HEK293 cells
reportedProperty: Ki (nM)

Check out these entries, answers already filled in.
| inputSmiles | Ki, nM |
| --- | --- |
| O=C(N[C@H](Cc1ccc(Cl)cc1)C(=O)N1CCN(c2ccccc2Oc2ccccc2)CC1)[C@H]1Cc2ccccc2CN1 | 640 |
| CN(C)CCOc1ccccc1N1CCN(C(=O)[C@@H](Cc2ccc(Cl)cc2)NC(=O)[C@H]2Cc3ccccc3CN2)CC1 | 230 |

P: C[C@@H](O)c1ccccc1N1CCN(C(=O)[C@@H](Cc2ccc(Cl)cc2)NC(=O)[C@H]2Cc3ccccc3CN2)CC1
Q: O=C(N[C@H](Cc1ccc(Cl)cc1)C(=O)N1CCN(c2ccccc2[N+](=O)[O-])CC1)[C@H]1Cc2ccccc2CN1
Query: Sorting by Ki in descending order, would P or Q appear first? # answer = label of selected item
Result: Q

----------
systemName: UniProt:P41968
Sequence (P41968 whole entry): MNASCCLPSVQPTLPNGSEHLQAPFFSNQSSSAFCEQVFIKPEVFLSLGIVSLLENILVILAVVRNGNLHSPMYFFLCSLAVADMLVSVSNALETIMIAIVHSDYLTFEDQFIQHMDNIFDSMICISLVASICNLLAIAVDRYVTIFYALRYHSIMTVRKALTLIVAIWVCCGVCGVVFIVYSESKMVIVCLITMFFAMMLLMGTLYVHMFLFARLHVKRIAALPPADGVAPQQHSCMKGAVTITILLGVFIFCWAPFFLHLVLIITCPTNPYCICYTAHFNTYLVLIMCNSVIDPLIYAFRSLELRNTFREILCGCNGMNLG
assaySummary: Agonistic potency towards human Melanocortin 3 receptor (MC3R) was determined by 50% maximum cAMP release
Format: functional
reportedProperty: EC50 (nM)

| inputSmiles | reportedValue |
| --- | --- |
| O=C(N[C@H](Cc1ccc(Cl)cc1)C(=O)N1CCN(c2ccccc2Cn2ccnc2)CC1)[C@H]1Cc2ccccc2CN1 | 1600 |
| CS(=O)(=O)Nc1ccccc1N1CCN(C(=O)[C@@H](Cc2ccc(Cl)cc2)NC(=O)[C@H]2Cc3ccccc3CN2)CC1 | 2000 |
| CN(C)Cc1ccccc1N1CCN(C(=O)[C@@H](Cc2ccc(Cl)cc2)NC(=O)[C@H]2Cc3ccccc3CN2)CC1 | 1800 |

----------
systemName: UniProt:P32245
assaySummary: Agonistic potency towards human melanocortin 4 receptor, determined by 50% maximum cAMP release
reportedProperty: EC50 (nM)

P: Cn1ccnc1COc1ccccc1N1CCN(C(=O)[C@@H](Cc2ccc(Cl)cc2)NC(=O)[C@H]2Cc3ccccc3CN2)CC1
Q: Cc1nccn1Cc1ccccc1N1CCN(C(=O)[C@@H](Cc2ccc(Cl)cc2)NC(=O)[C@H]2Cc3ccccc3CN2)CC1
Query: Sorting by EC50 in descending order, would P or Q appear first? # answer = label of selected item
Result: P

A: Cn1ccnc1Cc1ccccc1N1CCN(C(=O)[C@@H](Cc2ccc(Cl)cc2)NC(=O)[C@H]2Cc3ccccc3CN2)CC1
B: CC(C)c1ccccc1N1CCN(C(=O)[C@@H](Cc2ccc(Cl)cc2)NC(=O)[C@H]2Cc3ccccc3CN2)CC1
Query: Sorting by EC50 in descending order, would A or B appear first? # answer = label of selected item
Result: B
(B: 110 nM, A: 44 nM)
